All values here come from PubChem BioAssay (NCI).

Tested on: BT-549 breast
Experiment: NCI-60 one-dose screen, 48 h (100 = growth as untreated, 0 = no growth, -100 = all killed)
Settings: 10 µM
Compounds without any hit were thinned out: in the full panel of roughly 83,000, 20% have a hit. Active and inactive are the calls of the source. How the source made its calls: active means growth percent below 10; inactive means the rest.
Listed here are molecules together with their documented growth.

The following molecules have reported results that may help.
[
  {
    "molecule": "Cc1ccc(C)c2c1sc1nc3n[nH]c(N)c3c(=N)n12",
    "growth": "114% (inactive)"
  },
  {
    "molecule": "Cc1nn2c(/C=C3/C(=O)Nc4ccc(Cl)cc43)c(-c3ccccc3)nc2s1",
    "growth": "48.8% (inactive)"
  },
  {
    "molecule": "CCOC(=O)c1c(Cl)c2c(n1Cc1cccc(OC)c1)-c1oncc1CC2",
    "growth": "21.7% (inactive)"
  },
  {
    "molecule": "Cc1cc2cc3c(=O)[nH]c(=O)cc-3n(CC(O)C(O)C(O)CO)c2cc1C (configuration not stated)",
    "growth": "104% (inactive)"
  },
  {
    "molecule": "Cn1c([N+](=O)[O-])cnc1/C=C1\\Oc2ccc(Br)cc2C1=O",
    "growth": "-41% (active)"
  },
  {
    "molecule": "CCN(CC)CCOC(=O)c1ccc(NC(=O)Nc2cccc(Cl)c2)cc1",
    "growth": "92.9% (inactive)"
  }
]

Now take the following molecule into account.
Problem: What value of growth on BT-549 breast does `O=C(Nc1cccc(Cl)c1)Nc1cc2ncncc2cc1OCc1cccc(F)c1` have?
Solution: 44.8% (inactive)
